Kindly supply the reported PGI (% of DB1127 at 10 uM) values for the records listed here.
# System: E. multilocularis metacestodes
# assay_method_text: PGI assay: phosphoglucose isomerase release from damaged metacestodes
# Format: cell-based, Echinococcus multilocularis
# protocol_conditions: 10 μM, 5 days, single wells, relative to DB1127 (10 μM)
Give the number; % is assumed, so skip it.

# lookup: PGI (% of DB1127 at 10 uM) of Cc1ccc(CN2CCC(C(=O)Nc3ccc(-c4cc5ccccc5[nH]4)cc3)CC2)o1
-52.95

Would you kindly share the measured PGI (% of DB1127 at 10 uM) for CCOc1c(Cl)cc(CNCC(O)c2ccccc2)cc1OC (stereo not drawn) ?
5.30

May I ask what PGI (% of DB1127 at 10 uM) has been recorded for COc1cc(OC)c(N(C)C(=O)c2cc3c(s2)-c2ccccc2S(=O)(=O)C3)cc1Cl ?
-47.62

Requested field: PGI (% of DB1127 at 10 uM). Item: CCOc1ccc2c(c1)CN(Cc1ccc(Cl)cc1)CO2
-40.44

// lookup PGI (% of DB1127 at 10 uM) for Cc1ccc(N2C(=O)C3C(C2=O)C2(c4ccccc4)C(=O)C3(c3ccccc3)C(c3ccccc3)=C2c2ccccc2)cc1 (stereo not drawn)
-37.70

Give the measured PGI (% of DB1127 at 10 uM) of COc1ccc(-c2nc3cc(Cc4ccc5[nH]c(-c6ccc(OC)cc6)nc5c4)ccc3[nH]2)cc1 .
61.95

Entry CCOc1cccc(C(=O)Nc2ccc(-c3nc4ccccc4[nH]3)cc2)c1 : reported PGI (% of DB1127 at 10 uM) = ?
-27.17

Consider the compound shown here: Oc1ccc(Br)cc1CN1CCN(Cc2ccc(Cl)cc2)CC1 What is its recorded PGI (% of DB1127 at 10 uM)?
-23.13

What value of PGI (% of DB1127 at 10 uM) has been recorded for this entry: CCc1ccc(CNCC(O)c2ccccc2)cc1.Cl (stereo not drawn)
-2.45

---

# Tested on: E. multilocularis metacestodes
# assay_method_text: PGI assay: phosphoglucose isomerase release from damaged metacestodes
# Assay type: cell-based, Echinococcus multilocularis
# protocol_conditions: PGI assay, 10-0.01 μM, 5 days
# Method: The preparation of E. multilocularis metacestode material (strain H95) from intraperitoneally (i.p.) infected BALB/c mice was performed as described earlier. […] For screening of the Malaria Box against E. multilocularis metacestodes, the PGI screening assay was applied that measures the release of the enzyme phosphoglucose isomerase (PGI) upon physical impairment of metacestodes. […] Averages, standard deviations and EC50 values were calculated in Microsoft Excel 2010.
endpoint_label: EC50

What value of EC50 on E. multilocularis metacestodes does FC(F)(F)c1cccc(Nc2nc3ccccc3nc2Nc2cccc(C(F)(F)F)c2)c1 [MMV665794] have?
2800 nM

---

Can you tell me PGI (% of DB1127 at 10 uM) for the items I'm about to list?
# Tested on: E. multilocularis metacestodes
# assay_method_text: PGI assay: phosphoglucose isomerase release from damaged metacestodes
# Type: cell-based, Echinococcus multilocularis
# protocol_conditions: 10 μM, 5 days, single wells, relative to DB1127 (10 μM)
Numbers only here, please. The scale is %.

// fetch E. multilocularis metacestodes PGI (% of DB1127 at 10 uM) for CCOC(=O)c1cnc2c(C)cccc2c1Nc1ccc(C(C)=O)cc1
-32.91

Identify the measured PGI (% of DB1127 at 10 uM) of COc1cccc(Nc2nc(NCCO)c3ccccc3n2)c1.Cl for E. multilocularis metacestodes.
15.53

Test system E. multilocularis metacestodes; read-out PGI (% of DB1127 at 10 uM); what value for CN(C)CCCNc1c2ccccc2nc2ccccc12 ?
-25.46

Record lookup: for E. multilocularis metacestodes, what PGI (% of DB1127 at 10 uM) belongs to Cc1cccc(-n2ncc3c(O)nc(-n4nc(C)cc4NC(=O)c4cc5ccccc5o4)nc32)c1 ?
-25.18

Give PGI (% of DB1127 at 10 uM) (E. multilocularis metacestodes) of the following molecule: COc1cc2c3cc1Oc1c(OC)c(OC)cc4c1C(Cc1ccc(O)c(c1)Oc1ccc(cc1)CC3N(C)CC2)N(C)CC4.Cl (stereo not shown)
-10.35

Param readout = PGI (% of DB1127 at 10 uM); param system = E. multilocularis metacestodes; param query = CCOc1cc2c(cc1OCC)C(c1cc(OC)c(O)cc1Cl)NCC2 (stereo not shown) ; response: value
-28.84

What value of PGI (% of DB1127 at 10 uM) on E. multilocularis metacestodes does CCN(Cc1ccccc1)C1CCN(Cc2cc(Br)ccc2O)CC1.O=C(O)C(=O)O have?
-5.90

Form: Entry = COCCN(C(=O)Cc1cccs1)C(C(=O)NCc1ccc(OC)cc1)c1ccc(C(C)C)cc1 (stereo not shown) | System = E. multilocularis metacestodes | PGI (% of DB1127 at 10 uM) = ____
-124.48

Find the measured PGI (% of DB1127 at 10 uM): item FC(F)(F)c1cccc(Nc2nc(-c3ccccc3)nc3ncccc23)c1 , target or system E. multilocularis metacestodes.
30.38

What measured PGI (% of DB1127 at 10 uM) is associated with CN1CCN(c2ccc(Nc3c4ccccc4nc4ccccc34)cc2)CC1 on E. multilocularis metacestodes?
2.41

Request body: readout PGI (% of DB1127 at 10 uM), system E. multilocularis metacestodes, query COc1cc(-c2nc(-c3ccc(Sc4ccccc4)cc3)c(-c3ccccc3)[nH]2)cc(OC)c1O . Return the value.
-7.16

Query for E. multilocularis metacestodes: what PGI (% of DB1127 at 10 uM) does the record show for CCCCOC(=O)c1ccc(Nc2cc(C)nc3ccc(OC)cc23)cc1 ?
0.71

Find the measured PGI (% of DB1127 at 10 uM): item Oc1ccc2ccccc2c1CNc1nc2ccccc2[nH]1 , target or system E. multilocularis metacestodes.
34.82

For the record O=C(NCC(c1ccsc1)N1CCCCCC1)c1ccc(C(F)(F)F)cc1 (stereo not shown) , what value of PGI (% of DB1127 at 10 uM) is listed for E. multilocularis metacestodes?
-34.18

Form: Entry = CCC1(C)CC(CCNCc2ccccc2O)(c2ccc(C)cc2)CCO1 (stereo not shown) | System = E. multilocularis metacestodes | PGI (% of DB1127 at 10 uM) = ____
-21.13

Can you look up PGI (% of DB1127 at 10 uM) on E. multilocularis metacestodes for Cc1ccc(F)cc1NC(=O)c1cc(Cl)ccc1Nc1ccccc1 ?
1.44

Query for E. multilocularis metacestodes: what PGI (% of DB1127 at 10 uM) does the record show for Cc1ccccc1OCCSc1nc2ccc(NC(=O)c3cccs3)cc2s1 ?
-6.56

Query the reported PGI (% of DB1127 at 10 uM) for E. multilocularis metacestodes; item: O=C1CC(O)(C(F)(F)C(F)(F)F)Oc2ccccc21 (stereo not shown)
141.59

Query the reported PGI (% of DB1127 at 10 uM) for E. multilocularis metacestodes; item: CCN(CC)CCCNc1ccnc2cc3ccccc3cc12
-52.95
